Test system: MDA-MB-231
run_description: Antiproliferative activity against human MDA-MB-231 cells after 96 hrs by WST1 assay
Assay type: functional
reported_conditions: MDA-MB-231, 96 h
Entries and their GI50 values follow.

input_smiles | target_or_system | GI50
Cc1cc2c(cc1OS(N)(=O)=O)CC[C@@H]1[C@@H]2CC[C@]2(C)[C@@H](OS(N)(=O)=O)CC[C@@H]12 | MDA-MB-231 | 0.25 µM
CCc1cc2c(cc1OS(N)(=O)=O)CC[C@@H]1[C@@H]2CC[C@]2(C)[C@@H](OC(N)=O)CC[C@@H]12 | MDA-MB-231 | 0.39 µM
CCc1cc2c(cc1OS(N)(=O)=O)CC[C@@H]1[C@@H]2CC[C@]2(C)[C@@H](OS(N)(=O)=O)CC[C@@H]12 | MDA-MB-231 | 0.21 µM
CC(C)c1cc2c(cc1OS(N)(=O)=O)CC[C@@H]1[C@@H]2CC[C@]2(C)[C@@H](OC(N)=O)CC[C@@H]12 | MDA-MB-231 | 3.4 µM
CCCCc1cc2c(cc1OS(N)(=O)=O)CC[C@@H]1[C@@H]2CC[C@]2(C)[C@@H](OC(N)=O)CC[C@@H]12 | MDA-MB-231 | > 100 µM
CCCc1cc2c(cc1OS(N)(=O)=O)CC[C@@H]1[C@@H]2CC[C@]2(C)[C@@H](OS(N)(=O)=O)CC[C@@H]12 | MDA-MB-231 | 6.4 µM
CCCc1cc2c(cc1OS(N)(=O)=O)CC[C@@H]1[C@@H]2CC[C@]2(C)[C@@H](OC(C)=O)CC[C@@H]12 | MDA-MB-231 | 20.4 µM
